- TARGET_SYSTEM: Human dihydroorotate dehydrogenase (DHODH) (Homo sapiens, UniProt Q02127)
- Sequence (Q02127 whole entry): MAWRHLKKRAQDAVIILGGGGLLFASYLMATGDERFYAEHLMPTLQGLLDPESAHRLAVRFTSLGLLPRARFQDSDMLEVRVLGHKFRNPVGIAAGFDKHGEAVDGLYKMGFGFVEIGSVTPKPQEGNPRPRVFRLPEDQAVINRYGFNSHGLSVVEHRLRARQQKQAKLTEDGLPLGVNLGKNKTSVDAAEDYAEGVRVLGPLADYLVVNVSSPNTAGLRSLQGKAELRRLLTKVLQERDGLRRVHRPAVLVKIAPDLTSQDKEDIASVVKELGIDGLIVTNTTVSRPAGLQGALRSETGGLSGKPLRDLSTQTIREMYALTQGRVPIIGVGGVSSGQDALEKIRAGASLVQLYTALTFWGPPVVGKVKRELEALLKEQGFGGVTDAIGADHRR
- ASSAY_OVERVIEW: In vitro DHODH enzyme inhibition assay
- Format: biochemical
- TEST_CONDITIONS: read-out: Inhibition (%) at 10 μmol/L
PROPERTY_NAME: inhibition at 10 µM (%)

Sample records with inhibition at 10 µM:
- COMPOUND: "C/C(=C\\c1ccc(C)c(C)c1)C(=O)Nc1ccccc1C(=O)O [Compound 16]"
  PROPERTY_NAME: "inhibition at 10 µM"
  RECORDED_NUMBER: 92.9
- COMPOUND: "C/C(=C\\c1ccc2ccccc2c1)C(=O)Nc1ccc(Cl)cc1C(=O)O [Compound 44]"
  PROPERTY_NAME: "inhibition at 10 µM"
  RECORDED_NUMBER: 83
- COMPOUND: "COc1ccc(/C=C(\\C)C(=O)Nc2ccccc2C(=O)O)cc1 [Compound 14]"
  PROPERTY_NAME: "inhibition at 10 µM"
  RECORDED_NUMBER: 88.7
- COMPOUND: "CC/C(=C\\c1ccc2ccccc2c1)C(=O)Nc1ccccc1C(=O)O [Compound 41]"
  PROPERTY_NAME: "inhibition at 10 µM"
  RECORDED_NUMBER: 82.8
- COMPOUND: "C/C(=C\\c1ccc(C(F)(F)F)nc1)C(=O)Nc1ccccc1C(=O)O [Compound 13]"
  PROPERTY_NAME: "inhibition at 10 µM"
  RECORDED_NUMBER: 69.3
- COMPOUND: "O=C(Nc1ccccc1C(=O)O)/C(Cl)=C/c1ccc2ccccc2c1 [Compound 39]"
  PROPERTY_NAME: "inhibition at 10 µM"
  RECORDED_NUMBER: 88.6
- COMPOUND: "C/C(=C\\c1ccc2ccccc2c1)C(=O)Nc1sccc1C(=O)O [Compound 49]"
  PROPERTY_NAME: "inhibition at 10 µM"
  RECORDED_NUMBER: 79.3
- COMPOUND: "C/C(=C\\c1ccc2ccccc2c1)C(=O)Nc1ccc(Br)cc1C(=O)O [Compound 45]"
  PROPERTY_NAME: "inhibition at 10 µM"
  RECORDED_NUMBER: 80.8

(1) C/C(=C\c1ccc2ccccc2c1)C(=O)Nc1ccccc1C(=O)O [Compound 24]
(2) COC(=O)c1ccccc1NC(=O)/C(C)=C/c1ccc2ccccc2c1 [Compound 52]
Q) // compare: 1 vs 2 , metric inhibition at 10 µM, want the smaller Your answer should be the label attached to the chosen record.
A) 2
(2: 29.6%, 1: 93.9%)
